All values here come from PubChem BioAssay AID1159554.

assay: P. falciparum Dd2 growth inhibitors, primary screen, SYBR Green fluorescence, single dose replicates (AID 1159554); conditions: 72 h, at 10 µM
The whole screen tested about 94,000 compounds, of which about 2,100 (2.2%) were called active. No stated cut-off is given here; in the data, active means activity change below about -80%; inconclusive means no clear call, values can overlap the other calls; inactive means above that. The sample holds actives, similar compounds and a random draw of the others, so the mix is not that of the screen.
Labels: active, inactive

- CCCC(=O)Nc1ccc2c(c1)C(=O)N(C)C[C@H](OC)[C@H](C)CN(CCc1ccccc1)[C@H](C)CO2: inactive
- C[C@@H]1CN([C@@H](C)CO)C(=O)Cc2cc(NC(=O)CCCN(C)C)ccc2O[C@@H]1CN(C)Cc1ccc(-c2ccccc2)cc1: inactive
- C[C@H](CO)N1C[C@H](C)[C@@H](CN(C)Cc2ccc3c(c2)OCO3)OCCCC[C@H](C)Oc2ccc(NC(=O)Nc3ccc(C(F)(F)F)cc3)cc2C1=O: inactive
- C[C@H](CO)N1C[C@H](C)[C@H](CN(C)Cc2ccc(Oc3ccccc3)cc2)Oc2c(NC(=O)CCCCCC(=O)Nc3ccccc3N)cccc2C1=O: active
- CNC(=O)C[C@@H]1CC[C@@H]2[C@@H](COc3ccc(NC(=O)c4ccc5c(c4)OCO5)cc3C(=O)N2C)O1: inactive
- C[C@H](CO)N1C[C@H](C)[C@H](CN(C)Cc2ccccc2)Oc2ccc(NC(=O)CCCCCC(=O)Nc3ccccc3N)cc2C1=O: inactive
- C[C@@H]1CN([C@H](C)CO)C(=O)c2cccc(NC(=O)CCCCCC(=O)Nc3ccccc3N)c2O[C@H]1CN(C)Cc1ccc(Oc2ccccc2)cc1: active
- Cc1noc(C)c1NC(=O)N(C)C[C@@H]1Oc2c(NC(=O)CCCCCC(=O)Nc3ccccc3N)cccc2C(=O)N([C@H](C)CO)C[C@@H]1C: inactive
- O=C(Nc1ccc(F)cc1)N[C@H]1CC[C@H](CCn2cc(C3(O)CCCC3)nn2)O[C@@H]1CO: inactive
- CO[C@H]1CN(C)C(=O)c2cc(NC(=O)Nc3ccc4c(c3)OCO4)ccc2OC[C@@H](C)NC[C@@H]1C: inactive
- CO[C@H]1CN(C)C(=O)c2cc(NC(=O)c3cnccn3)ccc2OC[C@H](C)N(C(=O)C2CC2)C[C@H]1C: inactive
- C[C@H]1CN([C@@H](C)CO)C(=O)c2cccc(NC(=O)Nc3ccccc3)c2O[C@H]1CN(C)Cc1ccc(Oc2ccccc2)cc1: inactive
- CO[C@H]1CN(C)C(=O)c2cc(NS(=O)(=O)c3ccccc3)ccc2OC[C@@H](C)N(Cc2nccs2)C[C@@H]1C: inactive
- CO[C@@H]1CN(C)C(=O)c2cc(NC(=O)C3CCOCC3)ccc2OC[C@H](C)N(Cc2cccnc2)C[C@@H]1C: inactive
- C[C@H](O)C#Cc1cnc2c(c1)C(=O)N([C@@H](C)CO)C[C@H](C)[C@@H](CN(C)C(=O)c1ccccc1)O2: inactive
